# Study Target: Receptor-interacting serine/threonine-protein kinase 2 (Homo sapiens)
# Assay Procedure: RIPK2-NOD2 association inhibitors, IC50 – cell-based, fluorescence, late-stage follow-up (AID 651962)
# Setup Conditions: cell-based NOD2-RIPK2 interaction, fluorescence read-out
The source made the active and inactive calls. The rule behind the calls is not given here.
The reply should name one outcome from yes = active, no = inactive

# example entries with known answers
# Molecule, Study Target, Discrete Label
rows = [
    ("O=S(=O)(c1ccccc1)N1CCCCCC1", "Receptor-interacting serine/threonine-protein kinase 2 (Homo sapiens)", "no"),
    ("O=[N+]([O-])c1cccc(S(=O)(=O)N2CCCCCC2)c1", "Receptor-interacting serine/threonine-protein kinase 2 (Homo sapiens)", "no"),
    ("O=S(=O)(c1ccc(F)cc1)N1CCCCCC1", "Receptor-interacting serine/threonine-protein kinase 2 (Homo sapiens)", "no"),
    ("Cc1ccc(S(=O)(=O)N2CCCCCC2)cc1[N+](=O)[O-]", "Receptor-interacting serine/threonine-protein kinase 2 (Homo sapiens)", "no"),
    ("Cc1nc([N+](=O)[O-])c(Br)n1Cc1ccc(Cl)c(Cl)c1", "Receptor-interacting serine/threonine-protein kinase 2 (Homo sapiens)", "no"),
]

Please turn your attention to the following entry.
stdin: In this assay, the call recorded for COc1ccc(C(C[N+](=O)[O-])n2nc(C)cc2C)cc1 (stereo unspecified) was what?
stdout: yes
